Entry source: patent US20130053430A1

# System: human CETP mRNA
# method notes: Antisense inhibition of human CETP mRNA in primary hepatocytes from huCETP transgenic mice (Example 4)
# Assay type: cell-based, mouse
# condition details: 200 nM, cytofectin, ~24 hours
Strand notation (5' to 3'): a small letter for the sugar, then the base; units joined by * are phosphorothioate-linked, units joined directly phosphodiester-linked; [ ] holds rarer units or linkages, { } end groups; capitals alone tell only the bases. e = 2'-O-(2-methoxyethyl) (MOE); [5mC] = 5-methylcytosine; d = 2'-deoxy (DNA)
For each record, write down the corresponding Percent inhibition of human CETP mRNA.
Give bare numbers, in %.

Guide cases for Percent inhibition of human CETP mRNA, answers given:
Result for ISIS 349455: 5-10-5 MOE gapmer CGATGCCTGCCTCGTGCGAG (e[5mC]*eG*eA*eT*eG*d[5mC]*d[5mC]*dT*dG*d[5mC]*d[5mC]*dT*d[5mC]*dG*dT*eG*e[5mC]*eG*eA*eG) , tested on human CETP mRNA, Percent inhibition of human CETP mRNA: 17

For the substance ISIS 349510: 5-10-5 MOE gapmer TCTAGCTCAAGCTCTGGAGG (eT*e[5mC]*eT*eA*eG*d[5mC]*dT*d[5mC]*dA*dA*dG*d[5mC]*dT*d[5mC]*dT*eG*eG*eA*eG*eG) , the measured Percent inhibition of human CETP mRNA on human CETP mRNA was 88

Query ISIS 349465: 5-10-5 MOE gapmer GAGACATCAATGGACTTGGC (eG*eA*eG*eA*e[5mC]*dA*dT*d[5mC]*dA*dA*dT*dG*dG*dA*d[5mC]*eT*eT*eG*eG*e[5mC]) on human CETP mRNA; Percent inhibition of human CETP mRNA returned: 66

Reported human CETP mRNA Percent inhibition of human CETP mRNA for item ISIS 349474: 5-10-5 MOE gapmer CGCTCCCCTTGGAGATGCAG (e[5mC]*eG*e[5mC]*eT*e[5mC]*d[5mC]*d[5mC]*d[5mC]*dT*dT*dG*dG*dA*dG*dA*eT*eG*e[5mC]*eA*eG) was 48

Tested on human CETP mRNA, the item ISIS 349480: 5-10-5 MOE gapmer TGTCTCCATCTGAAAGGATG (eT*eG*eT*e[5mC]*eT*d[5mC]*d[5mC]*dA*dT*d[5mC]*dT*dG*dA*dA*dA*eG*eG*eA*eT*eG) showed Percent inhibition of human CETP mRNA equal to 40

The reported Percent inhibition of human CETP mRNA value, human CETP mRNA, for ISIS 349515: 5-10-5 MOE gapmer AACTTCCACCACGCTGGAGG (sugars from the 5' end e5 d10 e5, backbone and methylation of C not given here) reads 94

# Percent inhibition of human CETP mRNA measured on human CETP mRNA for item ISIS 349488: 5-10-5 MOE gapmer GCACTGCCTTGAACTCGTCT (eG*e[5mC]*eA*e[5mC]*eT*dG*d[5mC]*d[5mC]*dT*dT*dG*dA*dA*d[5mC]*dT*e[5mC]*eG*eT*e[5mC]*eT) = 87

Case ISIS 349468: 5-10-5 MOE gapmer TCAATACCCAGCCACCAGGC (eT*e[5mC]*eA*eA*eT*dA*d[5mC]*d[5mC]*d[5mC]*dA*dG*d[5mC]*d[5mC]*dA*d[5mC]*e[5mC]*eA*eG*eG*e[5mC]) , human CETP mRNA, Percent inhibition of human CETP mRNA recorded as 50

Give Percent inhibition of human CETP mRNA for each of the items listed below.
1. ISIS 349444: 5-10-5 MOE gapmer TCCTGGCCCCAGAGATTCAC (eT*e[5mC]*e[5mC]*eT*eG*dG*d[5mC]*d[5mC]*d[5mC]*d[5mC]*dA*dG*dA*dG*dA*eT*eT*e[5mC]*eA*e[5mC])
2. ISIS 349449: 5-10-5 MOE gapmer CGAGCCGTTCAGCCTGGAGC (e[5mC]*eG*eA*eG*e[5mC]*d[5mC]*dG*dT*dT*d[5mC]*dA*dG*d[5mC]*d[5mC]*dT*eG*eG*eA*eG*e[5mC])

1: 0; 2: 63

====

Provide the reported Percent inhibition of human CETP mRNA of each item.
# Test system: human CETP mRNA
# method notes: Antisense inhibition of human CETP mRNA in primary hepatocytes from huCETP transgenic mice (Example 4)
# Format: cell-based, mouse
# condition details: 200 nM, cytofectin, ~24 hours
Strand notation (5' to 3'): a small letter for the sugar, then the base; units joined by * are phosphorothioate-linked, units joined directly phosphodiester-linked; [ ] holds rarer units or linkages, { } end groups; capitals alone tell only the bases. e = 2'-O-(2-methoxyethyl) (MOE); [5mC] = 5-methylcytosine; d = 2'-deoxy (DNA)
Give bare numbers, in %.

Sample answers from the record:
human CETP mRNA Percent inhibition of human CETP mRNA of ISIS 349499: 5-10-5 MOE gapmer CCAAGAGGCTTAAGAAGAGC (e[5mC]*e[5mC]*eA*eA*eG*dA*dG*dG*d[5mC]*dT*dT*dA*dA*dG*dA*eA*eG*eA*eG*e[5mC]) is 80

Measured Percent inhibition of human CETP mRNA (human CETP mRNA), entry ISIS 349512: 5-10-5 MOE gapmer TTGCCTTCTGCTACAAGCCC (sugars from the 5' end e5 d10 e5, backbone and methylation of C not given here) : 96

Observed Percent inhibition of human CETP mRNA on human CETP mRNA, entry ISIS 349494: 5-10-5 MOE gapmer AGAATTGACCACGACTCCCT (eA*eG*eA*eA*eT*dT*dG*dA*d[5mC]*d[5mC]*dA*d[5mC]*dG*dA*d[5mC]*eT*e[5mC]*e[5mC]*e[5mC]*eT) , equals 57

Lab note: substance ISIS 349448: 5-10-5 MOE gapmer CCGTATATGTATGTCCGCCC (e[5mC]*e[5mC]*eG*eT*eA*dT*dA*dT*dG*dT*dA*dT*dG*dT*d[5mC]*e[5mC]*eG*e[5mC]*e[5mC]*e[5mC]) tested on human CETP mRNA; recorded Percent inhibition of human CETP mRNA was 40

New cases:
Field Percent inhibition of human CETP mRNA (human CETP mRNA), entry ISIS 349450: 5-10-5 MOE gapmer GCAGTGGTGTGTAAGTGGCC (eG*e[5mC]*eA*eG*eT*dG*dG*dT*dG*dT*dG*dT*dA*dA*dG*eT*eG*eG*e[5mC]*e[5mC]) : 59

====

# method notes: Body and organ weights of huCETP transgenic mice (Example 5)
# Assay type: in vivo
# condition details: 50 mg/kg i.p. twice per week, week 6
e = 2'-O-(2-methoxyethyl) (MOE); d = 2'-deoxy (DNA)
Exercise: state measured Organ weights, Spleen for each of the substances provided.
Give bare numbers, in mg.

Your task in this section: give Organ weights, Spleen for each listed record.
1. ISIS 349517: 5-10-5 MOE gapmer CAGCACTTTAATGCCAGTGG (sugars from the 5' end e5 d10 e5, backbone and methylation of C not given here)
2. ISIS 349512: 5-10-5 MOE gapmer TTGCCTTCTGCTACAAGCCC (sugars from the 5' end e5 d10 e5, backbone and methylation of C not given here)
3. ISIS 349515: 5-10-5 MOE gapmer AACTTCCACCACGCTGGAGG (sugars from the 5' end e5 d10 e5, backbone and methylation of C not given here)
4. ISIS 349511: 5-10-5 MOE gapmer CCCGACCTCCTTGGAGACTT (sugars from the 5' end e5 d10 e5, backbone and methylation of C not given here)

89.0
86.8
89.3
76.0

====

For each of the substances below, state its Percent inhibition of human CETP mRNA.
# Test system: human CETP mRNA
# method notes: Antisense inhibition of human CETP mRNA in primary hepatocytes from huCETP transgenic mice (Example 4)
# Type: cell-based, mouse
# condition details: 200 nM, cytofectin, ~24 hours
Strand notation (5' to 3'): a small letter for the sugar, then the base; units joined by * are phosphorothioate-linked, units joined directly phosphodiester-linked; [ ] holds rarer units or linkages, { } end groups; capitals alone tell only the bases. e = 2'-O-(2-methoxyethyl) (MOE); [5mC] = 5-methylcytosine; d = 2'-deoxy (DNA)
One number for each entry, in %.

Solved entries (count: 4):
substance ISIS 349489: 5-10-5 MOE gapmer GTTGAAGCCCCAGGTCTCCA (eG*eT*eT*eG*eA*dA*dG*d[5mC]*d[5mC]*d[5mC]*d[5mC]*dA*dG*dG*dT*e[5mC]*eT*e[5mC]*e[5mC]*eA) , Percent inhibition of human CETP mRNA observed: 67

Per the record, ISIS 349483: 5-10-5 MOE gapmer CTCTGAGACATTCTTGTAGA (e[5mC]*eT*e[5mC]*eT*eG*dA*dG*dA*d[5mC]*dA*dT*dT*d[5mC]*dT*dT*eG*eT*eA*eG*eA) has Percent inhibition of human CETP mRNA of 63

Entry ISIS 349486: 5-10-5 MOE gapmer GAAAGCTACCTTGGCCAGCG (eG*eA*eA*eA*eG*d[5mC]*dT*dA*d[5mC]*d[5mC]*dT*dT*dG*dG*d[5mC]*e[5mC]*eA*eG*e[5mC]*eG) ; Percent inhibition of human CETP mRNA = 53

Value of measured Percent inhibition of human CETP mRNA for the entry ISIS 349492: 5-10-5 MOE gapmer GGCATCTTGAGGCAGTGGAC (antisense eG*eG*e[5mC]*eA*eT*d[5mC]*dT*dT*dG*dA*dG*dG*d[5mC]*dA*dG*eT*eG*eG*eA*e[5mC]) : 58

Then this substance:
Please fill in: Percent inhibition of human CETP mRNA reported for ISIS 349509: 5-10-5 MOE gapmer CATCTGCAGCAGCAGGAAGC (e[5mC]*eA*eT*e[5mC]*eT*dG*d[5mC]*dA*dG*d[5mC]*dA*dG*d[5mC]*dA*dG*eG*eA*eA*eG*e[5mC]) = 83
